Source: patent US20220056091A1

testedOn: T1, Fc fused human IL-18Rα (human, UniProt Q13478 19-329, limits assumed)
T1 construct: also called IL-18Rα monomer; IL-18 receptor alpha; not shown: Fc part
T1 sequence (looked up): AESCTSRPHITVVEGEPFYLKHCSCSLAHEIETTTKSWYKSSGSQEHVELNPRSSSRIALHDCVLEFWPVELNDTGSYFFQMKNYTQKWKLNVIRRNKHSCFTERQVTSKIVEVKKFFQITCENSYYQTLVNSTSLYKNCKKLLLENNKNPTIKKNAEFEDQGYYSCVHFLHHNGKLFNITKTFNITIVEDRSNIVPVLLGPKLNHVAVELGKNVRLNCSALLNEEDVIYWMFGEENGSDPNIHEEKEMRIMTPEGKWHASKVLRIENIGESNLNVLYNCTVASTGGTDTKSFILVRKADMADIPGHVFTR
assayRemarks: SPR, Fc-IL-18Rα captured, 1:1 model
propertyLabel: pKd
Expect pKd as a plain number equal to -log10 of the molar concentration.

response.value for Modified IL-18 polypeptide of SEQ ID NO: 2 (E06K, K53A, S55A) (ligand) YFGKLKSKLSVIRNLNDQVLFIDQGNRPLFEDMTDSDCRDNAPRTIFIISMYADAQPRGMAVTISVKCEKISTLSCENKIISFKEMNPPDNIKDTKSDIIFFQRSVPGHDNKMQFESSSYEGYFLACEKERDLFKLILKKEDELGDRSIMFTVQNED (field: pKd) = 5.70

response.value for Modified IL-18 polypeptide of SEQ ID NO: 10 (E06K, K53A, S55A, T63A) (ligand) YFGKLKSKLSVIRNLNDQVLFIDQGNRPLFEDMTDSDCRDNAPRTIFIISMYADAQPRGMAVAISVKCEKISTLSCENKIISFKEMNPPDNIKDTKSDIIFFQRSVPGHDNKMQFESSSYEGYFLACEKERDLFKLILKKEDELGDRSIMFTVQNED (field: pKd) = 6.83

response.value for Modified IL-18 polypeptide of SEQ ID NO: 71 (E6K, C38S, K53A) (ligand) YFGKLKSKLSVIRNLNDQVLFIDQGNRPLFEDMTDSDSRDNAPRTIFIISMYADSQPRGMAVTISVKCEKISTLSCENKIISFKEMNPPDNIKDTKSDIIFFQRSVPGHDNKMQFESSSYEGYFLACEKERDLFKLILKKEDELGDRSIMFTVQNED (field: pKd) = 7.14

Now consider a different binder.
response.value for Modified IL-18 polypeptide of SEQ ID NO: 15 (C38S, C68S, C76S, C127S) (ligand) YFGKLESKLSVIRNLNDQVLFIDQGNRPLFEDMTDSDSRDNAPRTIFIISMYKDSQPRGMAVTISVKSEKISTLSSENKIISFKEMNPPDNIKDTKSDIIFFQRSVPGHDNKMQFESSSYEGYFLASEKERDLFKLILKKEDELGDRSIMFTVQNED (field: pKd) = 6.64
